Biological target: T1, P5SH
T1 chain: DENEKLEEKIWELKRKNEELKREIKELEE
Experiment: two-hybrid library CCNG1;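 note: natural log of median RNA to DNA barcode read ratio; higher means stronger binding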
TEST READOUT: interaction score

These recorded examples may help you get a feel for the data.
DEIAQLEQKIAELEQEIAELEWKNAQLKQ [4H264-bA] | 1.79
DKIEELKRKIEELKWENEELERENEELER [P4SH] | -0.643

(1) DENEKLEEKIWELKRKNEELKREIKELEE [P5SH]
(2) DEIKELEEEIKELEWKNEELKRKNEELKR [P3SH]
Looking at 1 and 2 , which one comes out lower in interaction score terms? API: response body contains the label of the selected item.
1
(1: -0.706, 2: 0.554)
